biological target: Kallikrein-7 (Homo sapiens); assay: Inhibition of KLK7 (unknown origin) expressed in Pichia pastoris X33 at 200 nM using KHLY-pNA substrate by spectrophotometry method
Sequence (P49862 30-253 limits assumed): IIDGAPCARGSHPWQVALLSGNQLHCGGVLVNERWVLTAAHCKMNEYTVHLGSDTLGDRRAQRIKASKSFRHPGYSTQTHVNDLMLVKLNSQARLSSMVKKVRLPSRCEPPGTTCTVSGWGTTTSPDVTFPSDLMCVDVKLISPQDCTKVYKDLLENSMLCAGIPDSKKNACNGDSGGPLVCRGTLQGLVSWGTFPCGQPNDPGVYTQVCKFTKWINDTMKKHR
Calls of active or inactive are those of the source. The rule behind the calls is not given here. Bridge positions count the residues as written; N and C are the ends. Peptide text beside a SMILES is read from it.
reported.endpoint: inhibition

CC[C@H](C)[C@@H]1NC(=O)[C@@H]2CCCN2C(=O)[C@@H]2CCCN2C(=O)[C@H](CO)NC(=O)[C@H](CO)NC(=O)[C@H](CCCNC(=N)N)NC(=O)[C@H]([C@@H](C)O)NC(=O)[C@@H]2CSSC[C@H](NC1=O)C(=O)N[C@@H](CC(N)=O)C(=O)N1CCC[C@H]1C(=O)N[C@@H](CC(N)=O)C(=O)NCC(=O)N[C@@H]([C@@H](C)O)C(=O)N2 (cyclo(CNPNGTCTRSSPPI); disulfide 1-7): Active
CC[C@H](C)[C@@H]1NC(=O)[C@@H]2CCCN2C(=O)[C@@H]2CCCN2C(=O)[C@H](CCC(N)=O)NC(=O)[C@H](CO)NC(=O)[C@H](CCCNC(=N)N)NC(=O)[C@H]([C@@H](C)O)NC(=O)[C@@H]2CSSC[C@H](NC1=O)C(=O)N[C@@H](CC(N)=O)C(=O)N1CCC[C@H]1C(=O)N[C@@H](CC(N)=O)C(=O)NCC(=O)N[C@@H]([C@@H](C)O)C(=O)N2 (cyclo(CNPNGTCTRSQPPI); disulfide 1-7): Active
CC[C@H](C)[C@@H]1NC(=O)[C@@H]2CCCN2C(=O)[C@@H]2CCCN2C(=O)[C@H](Cc2cnc[nH]2)NC(=O)[C@H](CO)NC(=O)[C@H](CCCNC(=N)N)NC(=O)[C@H]([C@@H](C)O)NC(=O)[C@@H]2CSSC[C@H](NC1=O)C(=O)N[C@@H](CC(N)=O)C(=O)N1CCC[C@H]1C(=O)N[C@@H](CC(N)=O)C(=O)NCC(=O)N[C@@H]([C@@H](C)O)C(=O)N2 (cyclo(CNPNGTCTRSHPPI); disulfide 1-7): Active
